Below, each entry is listed alongside its reported Amount in urine collected for 10 h after consumption of cooked beef.
cond: Subject S-020; Mean ± SD of 3 independent measurements
assay_readout: Amount in urine collected for 10 h after consumption of cooked beef (ng)

>>> measured_number("Cc1cnc2ccc3c(nc(N)n3C)c2n1")
51.5
>>> measured_number("Cn1c(N)nc2ncc(-c3ccccc3)cc21")
18.9
>>> measured_number("Cn1c(=NO)n([C@@H]2O[C@H](C(=O)O)[C@@H](O)[C@H](O)[C@H]2O)c2ncc(-c3ccccc3)cc21")
253
>>> measured_number("Cn1c(N(O)[C@@H]2O[C@H](C(=O)O)[C@@H](O)[C@H](O)[C@H]2O)nc2ncc(-c3ccccc3)cc21")
2223
>>> measured_number("Cn1c(N)nc2ncc(-c3ccc(O)cc3)cc21")
38.3

====

cond: Subject S-001; metabolites as % of dose of parent MeIQx or PhIP
Outcome: label 1 for % Dose in urine collected for 10 h after consumption of cooked beef of at least 3 % Dose; label 0 for anything lower.

>>> cat("Cc1cnc2ccc3c(nc(N)n3C)c2n1 [MeIQx]")
"label 1"
>>> cat("Cn1c(N)nc2ncc(-c3ccc(O)cc3)cc21 [4'-HO-PhIP]")
"label 0"
>>> cat("Cn1c(=NO)n([C@@H]2O[C@H](C(=O)O)[C@@H](O)[C@H](O)[C@H]2O)c2ncc(-c3ccccc3)cc21 [HONH-PhIP-N3-GI]")
"label 0"
>>> cat("Cn1c(N)nc2ncc(-c3ccccc3)cc21 [PhIP]")
"label 0"
>>> cat("Cn1c(N(O)[C@@H]2O[C@H](C(=O)O)[C@@H](O)[C@H](O)[C@H]2O)nc2ncc(-c3ccccc3)cc21 [HONH-PhIP-N^2-GI]")
"label 1"

====

Below, each entry is listed alongside its reported Amount in urine collected for 10 h after consumption of cooked beef.
cond: Subject S-013; Mean ± SD of 3 independent measurements
assay_readout: Amount in urine collected for 10 h after consumption of cooked beef (ng)

>>> measured_number("Cn1c(N(O)[C@@H]2O[C@H](C(=O)O)[C@@H](O)[C@H](O)[C@H]2O)nc2ncc(-c3ccccc3)cc21")
1848
>>> measured_number("Cn1c(N)nc2ncc(-c3ccccc3)cc21")
14.1
>>> measured_number("Cn1c(=NO)n([C@@H]2O[C@H](C(=O)O)[C@@H](O)[C@H](O)[C@H]2O)c2ncc(-c3ccccc3)cc21")
179
>>> measured_number("Cc1cnc2ccc3c(nc(N)n3C)c2n1")
60.9
>>> measured_number("Cn1c(N)nc2ncc(-c3ccc(O)cc3)cc21")
37.2

====

cond: Subject S-012; metabolites as % of dose of parent MeIQx or PhIP
Below, each entry is listed alongside its reported % Dose in urine collected for 10 h after consumption of cooked beef.
assay_readout: % Dose in urine collected for 10 h after consumption of cooked beef (% Dose)

>>> measured_number("Cn1c(=NO)n([C@@H]2O[C@H](C(=O)O)[C@@H](O)[C@H](O)[C@H]2O)c2ncc(-c3ccccc3)cc21")
3.5
>>> measured_number("Cn1c(N(O)[C@@H]2O[C@H](C(=O)O)[C@@H](O)[C@H](O)[C@H]2O)nc2ncc(-c3ccccc3)cc21")
29.0
>>> measured_number("Cn1c(N)nc2ncc(-c3ccc(O)cc3)cc21")
1.0
>>> measured_number("Cc1cnc2ccc3c(nc(N)n3C)c2n1")
5.2
>>> measured_number("Cn1c(N)nc2ncc(-c3ccccc3)cc21")
0.3
